test system: KB-3-1; assay: Cytotoxic Profiling of Annotated Libraries Using Quantitative High-Throughput Screening (AID 1296008); details: Five cell lines viability, CellTiter-Glo ATP luminescence, 48-72 h; hits give low values; also: % is scaled to controls: 0 for no effect and ±100 for the full control effect; nearly all actives have a fitted effect of over 60% in size
Records with an inconclusive call do not appear.
quantity.kind: max response (%)
Numbers only; they are read as %.

Form field - read-out: max response; system: KB-3-1; submitted item: Nc1cc(Cl)c(NC2=NCCN2)c(Cl)c1 -1.36

Now give it for N[C@H](CO)C(=O)O too. -2.03

Now give it for CC(C)(C)NC(=O)[C@@H]1CN(Cc2cccnc2)CCN1C[C@@H](O)C[C@@H](Cc1ccccc1)C(=O)N[C@H]1c2ccccc2C[C@H]1O too. 9.13

Now give it for CC(=O)Oc1ccc(C(c2ccc(OC(C)=O)cc2)c2ccccn2)cc1 too. -5.6

Now give it for O=C1OCCN1/N=C/c1ccc([N+](=O)[O-])o1 too. -3.42

Now give it for CC(C)N=C(N)/N=C(\N)Nc1ccc(Cl)cc1 too. -14.7

Now give it for Cc1cc(O)c(C(C)C)cc1Cl too. 1.71

Now give it for CCCCCCc1ccc(O)cc1O too. 0.129

Now give it for Cc1cc2c(cc1CC(=O)c1sccc1S(=O)(=O)Nc1onc(C)c1Cl)OCO2 too. 9.67

Now give it for CCOC(=O)c1cccc(N)c1 too. -6.64

Now give it for NC(CO)(CO)CO too. 3.6

Now give it for CCn1cc(C(=O)O)c(=O)c2cnc(N3CCCC3)nc21 too. 8.93
